Values compiled from patent US12005072B2.

Exercise: state measured EC50 for each of the compounds provided.
test system: F227C mutant; experiment: Susceptibility of SDM derived DOR-resistant mutant to NRTIs, Example 1; format: cell-based, HIV-1; conditions: Human immunodeficiency virus 1, read-out: Antiviral Potency
Give bare numbers, in nM.

C#C[C@]1(CO)O[C@@H](n2cnc3c(N)nc(F)nc32)C[C@@H]1O ... 0.15

Inquiry: Entry Nc1ccn([C@@H]2CS[C@H](CO)O2)c(=O)n1 [3TC, lamivudine, reference compound] , system F227C mutant: what EC50 was measured?
Reply text: 1360

---

Exercise: state measured EC50 for each of the molecules provided.
system: V106M/F227C mutant; experiment: Susceptibility of SDM derived DOR-resistant mutant to NRTIs, Example 1; format: cell-based, HIV-1; settings: Human immunodeficiency virus 1, read-out: Antiviral Potency
Numbers only, in nM.

Nc1ccn([C@@H]2CS[C@H](CO)O2)c(=O)n1 [3TC, lamivudine, reference compound] ... 771

Next:
Inquiry: Return reported EC50; argument: "C#C[C@]1(CO)O[C@@H](n2cnc3c(N)nc(F)nc32)C[C@@H]1O"
Reply text: 0.3
